target: human CB2R (Homo sapiens, UniProt P34972); assay: CB2R mediated modulation of cAMP synthesis; assay type: cell-based
Sequence (P34972 whole entry): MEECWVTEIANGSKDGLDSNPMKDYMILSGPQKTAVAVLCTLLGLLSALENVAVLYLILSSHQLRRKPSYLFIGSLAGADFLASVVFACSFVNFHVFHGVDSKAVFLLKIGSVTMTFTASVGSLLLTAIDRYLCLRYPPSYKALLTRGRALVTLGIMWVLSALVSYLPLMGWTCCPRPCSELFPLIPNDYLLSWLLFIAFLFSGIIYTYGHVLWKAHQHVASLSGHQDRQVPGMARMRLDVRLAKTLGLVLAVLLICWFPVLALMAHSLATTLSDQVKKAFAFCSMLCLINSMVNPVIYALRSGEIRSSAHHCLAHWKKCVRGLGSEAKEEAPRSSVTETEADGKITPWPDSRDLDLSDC
QUANTITY: EC50 (nM)

> print(dat)
                                    compound  value.measured
 1  CC(C)(C)c1cc(NC(=O)[C@@H]2CCCN2S(=O)(=O)c2ccc(C(F)(F)F)cc2)no1             222
 2  CC(C)(C)OC(=O)CN1CCC[C@H]1C(=O)Nc1cc(C(C)(C)C)no1             0.1
 3   O=C(NCC1CCOCC1)[C@@H]1CCCN1c1ccc(Cl)cc1             415
 4  CC(C)(C)c1cc(NC(=O)[C@@H]2CCCN2CC2C=CCCC2)on1 (stereo partly drawn)           0.072
 5  CC(C)(C)c1cc(NC(=O)[C@@H]2CCC(=O)N2c2ccc(C#N)cc2)no1            59.9
 6  CC(C)(C)c1cc(NC(=O)[C@@H]2CCC(=O)N2c2ccc(F)cc2)no1            35.7
 7  CC(C)(C)c1cc(NC(=O)[C@@H]2CCCN2c2ncc(C(F)(F)F)cc2Cl)no1            0.08
 8  CC(C)N1C[C@@H](O)C[C@H]1C(=O)Nc1cc(C(C)(C)C)no1             421
 9  CC(C)(C)C1CCC(NC(=O)[C@@H]2CCC(=O)N2c2ccc(Cl)cc2)CC1 (stereo partly drawn)             159
10  CC(C)(C)c1cc(NC(=O)[C@@H]2CCC(=O)N2c2ccc(C(F)(F)F)c(F)n2)on1            8.05
11  CC(C)(C)c1cc(NC(=O)[C@@H]2CCC(=O)N2c2ncc(Cl)cn2)on1             455
12  CC(C)(C)c1cc(NC(=O)[C@@H]2CCCN2S(=O)(=O)c2ccc(Cl)cc2)no1             284
13  CC(C)(C)c1cc(NC(=O)[C@@H]2CC(=O)CN2c2ncc(C(F)(F)F)cc2Cl)no1            40.2
14  CC(C)(C)c1cc(NC(=O)[C@]2(C)CCCN2c2ccc(C(F)(F)F)cc2)no1           0.199
15  CC(C)(C)c1cc(NC(=O)[C@@H]2CCC(=O)N2c2ccc([N+](=O)[O-])cc2)no1            21.1
16  O=C(Nc1cc(C(F)(F)F)ccn1)[C@@H]1CCCN1c1ccc(Cl)cc1            23.4
17  CC(C)(C)c1cc(NC(=O)[C@@H]2C[C@@H](O)CN2c2ccc(Cl)cc2)no1            14.4
18  O=C(Nc1ccc(F)c(C(F)(F)F)c1)[C@@H]1CCCN1c1ccc(Cl)cc1            19.1
19  CC(C)(CO)c1cc(NC(=O)[C@@H]2CCCN2c2ccc(Cl)cc2)on1           0.378
20   CC(C)(C)c1cc(NC(=O)[C@@H]2CCCN2CCCO)on1            28.6
21  CC(C)(C)c1cc(NC(=O)C2CCCN2c2ncc(C(F)(F)F)cc2Cl)no1 (stereo not drawn)          0.0402
22  CCC(C)c1cc(NC(=O)[C@@H]2CCC(=O)N2c2ccc(C(F)(F)F)cc2)on1 (stereo partly drawn)            40.9
23  CC(C)(C)c1cc(NC(=O)[C@@H]2C[C@@H](O)CN2C2CCOCC2)on1             328
24  CC1CCCCC1N1CCC[C@H]1C(=O)Nc1nnc(C(C)(C)C)s1 (stereo partly drawn)             255
25  CC(C)(C)c1cc(NC(=O)[C@@H]2CCC(=O)N2c2ccc(F)cn2)on1            8.15
26  CC(C)(C)c1cc(NC(=O)[C@@H]2CCC(=O)N2c2cccc(F)c2F)on1             261
27  Cc1ccc(N2C(=O)CC[C@H]2C(=O)Nc2cc(C(C)(C)C)no2)nc1            15.4
28  CC(C)(C)c1csc(NC(=O)[C@@H]2CCCN2c2ccc(Cl)cc2)n1            30.1
29  CC(C)(CO)c1cc(NC(=O)[C@@H]2CCC(=O)N2c2ccc(C(F)(F)F)cc2)no1            80.8
30  CC(C)(C)c1csc(NC(=O)[C@@H]2CCCN2c2ncc(C(F)(F)F)cc2Cl)n1            1.95
31  CC(Cc1ccc(Cl)cc1)NC(=O)[C@@H]1CCCN1c1ccc(Cl)cc1 (stereo partly drawn)             270
32  CC(C)(C)c1nnc(NC(=O)[C@@H]2CCCN2CC2CCOCC2)s1            16.5
33  O=C(Nc1nc2ccc(Cl)cc2s1)[C@@H]1CCCN1CC1CCOCC1             188

Cited source: patent US8629157B2
